B1: Azoarcus group I ribozyme (parent)
chain: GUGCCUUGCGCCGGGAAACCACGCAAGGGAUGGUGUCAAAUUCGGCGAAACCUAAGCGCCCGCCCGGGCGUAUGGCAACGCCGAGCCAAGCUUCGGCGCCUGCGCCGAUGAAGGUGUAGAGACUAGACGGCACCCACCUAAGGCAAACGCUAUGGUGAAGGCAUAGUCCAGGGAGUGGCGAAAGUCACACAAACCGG

Variants of: B1
Assay: reverse-splicing fitness (ratio to wild type); higher = more active; in vitro selection; Mg2+ level not given
MEASURED PROPERTY: reverse-splicing fitness
API doc: respond with a numeric literal and nothing else, no unit.

Task: Fill in reverse-splicing fitness for record C82U A111G A120C A145G C169A U176C
Output: 0.0205

Task: State, in one line, measured reverse-splicing fitness of C82G A111G A120G C150U C169G U176C
Output: 0.0206

Task: State, in one line, measured reverse-splicing fitness of C82A A111U A120C A145U C169A U176G
Output: 0.00804
